Biological target: IM-CA22
Sequence (VH, as listed by the source, chain 1 of 2): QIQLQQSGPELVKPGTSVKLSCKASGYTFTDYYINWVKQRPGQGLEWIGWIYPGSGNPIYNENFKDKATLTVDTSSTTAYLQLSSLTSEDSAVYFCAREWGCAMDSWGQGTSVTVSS
Sequence (VL, as listed by the source, chain 2 of 2): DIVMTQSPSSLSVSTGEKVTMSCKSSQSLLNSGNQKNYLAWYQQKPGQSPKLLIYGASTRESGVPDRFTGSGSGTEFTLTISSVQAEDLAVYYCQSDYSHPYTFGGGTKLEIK
Assay: competition ELISA: 0.5 µg/mL peptide added to prevent the binding of AS-SPIK with IM-CA22; inhibition rate from OD value with vs without peptide

{"columns": ["BINDER", "VALUE_UNITS", "Inhibition %"],
 "data": [
  ["LSLSGNTGA [SPIK8]", "%", 11],
  ["SLSGNTGADSLGR [SPIK2]", "%", 10],
  ["LLSLSGNTGADSL [SPIK3]", "%", 11],
  ["SGNTGADSLGREA [SPIK1]", "%", 9]
]}
